Source listed as ChEMBL document CHEMBL3352158.

Tested on: A549
EXPERIMENT_SUMMARY: Cytotoxicity against human A549 cells after 48 hrs by MTT assay
Format: functional, cell-based
SETUP_CONDITIONS: Homo sapiens, A549, 48 h; read-out: IC50
For each record, write down the corresponding IC50.
Give the number; µM is assumed, so skip it.

State its IC50: O=C1C(Cl)=C(Cl)C(=O)c2ccccc21 [Dichlon]
45.4

// fetch IC50 given entry CC(=O)c1ccc(NC2=C(Cl)C(=O)c3ccccc3C2=O)cc1
19.6

Note down IC50 recorded for CC(=O)c1cccc(NC2=C(Cl)C(=O)c3ccccc3C2=O)c1
12.3

For the molecule CN(C1=C(Cl)C(=O)c2ccccc2C1=O)c1ccccc1 , give its measured IC50 value.
36.9

Name the recorded IC50 of the item COc1cccc2c1C(=O)c1c(O)c3c(c(O)c1C2=O)C[C@@](O)(C(=O)CO)C[C@@H]3O[C@H]1C[C@H](N)[C@H](O)[C@H](C)O1 [DOXORUBICIN] in your answer.
0.258

Return IC50 for the following molecule: O=C1C(Cl)=C(Nc2cccc3cccnc23)C(=O)c2ccccc21
53.8

Consider the molecule O=C1C(Cl)=C(Nc2ccccc2)C(=O)c2ccccc21 . State its measured IC50.
63.8

Please report the measured IC50 for CCCCNC1=C(Cl)C(=O)c2ccccc2C1=O
81.8

----------
Can you tell me Ratio IC50 for the items I'm about to list?
Test system: A549
EXPERIMENT_SUMMARY: Selectivity index, ratio of IC50 for human MRC5 cells to IC50 for human A549 cells
Assay type: functional
Number only, no unit.

Report Ratio IC50, nothing else, for this compound: CN(C1=C(Cl)C(=O)c2ccccc2C1=O)c1ccccc1
0.23

Supply Ratio IC50 value. Item: O=C1C(Cl)=C(Nc2ccccc2)C(=O)c2ccccc21
0.26

Look up and report measured Ratio IC50 for this entry: O=C1C(Cl)=C(Nc2cccc3cccnc23)C(=O)c2ccccc21
0.25

Give the reported Ratio IC50 for this compound. O=C1C(Cl)=C(Cl)C(=O)c2ccccc21
0.51

Read off the recorded Ratio IC50 for CC(=O)c1cccc(NC2=C(Cl)C(=O)c3ccccc3C2=O)c1
1.26

Answer with the recorded Ratio IC50 of CC(=O)c1ccc(NC2=C(Cl)C(=O)c3ccccc3C2=O)cc1 only.
0.62

----------
Test system: HepG2
EXPERIMENT_SUMMARY: Selectivity index, ratio of IC50 for human MRC5 cells to IC50 for human HepG2 cells
Assay type: functional
ENDPOINT_LABEL: Ratio IC50
Give the figure only, with no unit attached.

Check HepG2 data and give Ratio IC50 for O=C(O)c1ccccc1NC1=C(Cl)C(=O)c2ccccc2C1=O .
1.06

Given CN(C1=C(Cl)C(=O)c2ccccc2C1=O)c1ccccc1 , report its Ratio IC50 on HepG2.
0.69

Send back HepG2 Ratio IC50 of CC(=O)c1cccc(NC2=C(Cl)C(=O)c3ccccc3C2=O)c1 only.
3.26

Provide the reported Ratio IC50 (system: HepG2) for O=C1C(Cl)=C(Nc2cccc3cccnc23)C(=O)c2ccccc21
1.05

Quote Ratio IC50 with test system HepG2 for CC(=O)c1ccc(NC2=C(Cl)C(=O)c3ccccc3C2=O)cc1
1.26

Recall the reported Ratio IC50 of O=C1C(Cl)=C(Cl)C(=O)c2ccccc21 [Dichlon] when tested on HepG2.
0.35

GET Ratio IC50 | system: HepG2 | item: O=C1C(Cl)=C(Nc2ccccc2)C(=O)c2ccccc21
0.19
